Experiment: Identification of proteins required for the processing of the EWS-FLI1 nascent transcript;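 note: robust z of luciferase light less the median z of siRNAs with the same seed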
Settings: TC32 Ewing sarcoma NR0B1-luc vs CMV-luc (EWS-FLI1 target promoter against control promoter), 48 h; screened at 20 nM (by protocol)
Over roughly 59,000 sequences, the read-out has its median near -0.00055; the lowest 2% begin near -2. This excerpt belongs to a sample that is enriched for the lowest values.
I'd be grateful if you could share measured seed-corrected z-score for these entries.
Answers are plain numbers.

ORDERED_RESIDUES: UGACGGCUGGUCGUGAUCU against SPDYE2
QUANTITATIVE_READOUT: 0.00759

Quick one: give me seed-corrected z-score for each item below, same order please.
1. UCAGGUUCUUUGUCUGACC against IRS1
2. UUCCAGCACAUAUCGACUC against TMEM8B
3. AGUAUAACCAGUGGGAGGC against EWSR1
4. UUGGUUGGAACUACUUACG against STARD9
5. UUCGUUAAGCAAACACUCG against ADAMTS9
6. UUGAGUUUGAUGCCGCUGC against MKNK2
7. UAUCUUUAUCAAAACCUCG against EFCAB1
8. AACUGGUUCAUCAGUGUCC against WDR89

Response given:
-1.53
-2.4
-5.73
-3.22
0.367
-0.331
-0.824
-2

I'm hoping you can list seed-corrected z-score for every sequence here, please.
1. ACUUUUUACCUCCUCAUUC against OR4E2
2. AAAGAGGAAACGGUAGGCC against JAGN1
3. AGUUUAUACAUUCUUUUCC against SPTLC1
4. UAACAUCUUGGAGCACUAC against CCDC54
5. ACAGAUAUUGUAAAUCUCC against TMEM14C

Response given:
1.72
-2.67
-0.145
-0.239
0.508

# per-item lookup of seed-corrected z-score; items listed below
1. UGUAUUUUAUGUCUCUCCC against PLAC8L1
2. ACAUAUACUGGUAACACUG against SH3GLB1

Response given:
[-0.115, -0.404]

Please state, for each entry, its recorded seed-corrected z-score.
1. UAAACAAUACGUCAGUGCC against OR51T1
2. UUAUAUAUCUCCUGGAGCG against AGPAT3
3. UGUCUAAUAAACAAGUUAC against DNA2
4. UUGAUAUAAACUCUGACAC against PDE4D
5. UCACUAGCAAGGUUCUCCC against LARP4B
6. UACAGAUAAACGAUGAUGC against TMEM104

Response given:
1. -0.809
2. -0.537
3. -0.418
4. 0.567
5. 0.24
6. -0.0479

Please state seed-corrected z-score for every sequence in the list that follows.
1. AAGGUUGCUAUACGUGGGC against C19orf35
2. UUAACUGCAGGCUUAUACU against AKR1B1
3. UAGAAGAUAGGUGAAGUGA against DNAJC22
4. UAUGCGACAAAGAAUGACU against OR4N3P
5. AAAGUGAACAUCGGGUCCC against LILRA4
6. UCCUGCUACAUUUACAUCG against FERMT1
7. UUGCUUAUUCUCUCUCACG against CAAP1
8. AUGACAAUCACAUUCCUCU against AKR1B10

Response given:
1. -2.85
2. -1.42
3. 0.192
4. 0.242
5. -0.351
6. -3.31
7. -3.02
8. 0.0562

Could you report seed-corrected z-score for every entry in the following list?
1. ACAGAUAUAGGAGAAAGCC against NUMBL
2. AUGUUGCCCACGUCCUUGG against RABIF
3. UCAUAGGUCACAAAGGUGC against KIF9
4. UCUGGGUACAAUCUGGUGU against CHCHD10
5. UACAUUGUAGCAGAUGUUG against ACSS2
6. UAUAGGCACGCUGCUAUUC against DIRC2
7. UUCUUGAUCAUCAUUCACC against SLC7A6OS

Response given:
0.00267
-3.06
0.0712
-2.26
-0.36
-2.73
0.569

For each of the items listed, what is its seed-corrected z-score?
1. UCAUAGUCGAUCACCACUG against COL23A1
2. UCUGGAGUUCUCAUUAGAC against IRF7
3. UAUUUAUUAGAAACAUGGG against ZNF415

Response given:
[-0.458, 0.205, -2.45]

// data source = PubChem BioAssay AID1159506
